Taken from patent US9999616B2.

IC50 for assorted compounds
- SUBJECT OF TEST: Brd4 bromodomain 1 (BRD4(1)) (Homo sapiens, UniProt O60885)
- TEST SUMMARY: Inhibition of tetra-acetylated histone H4 binding to Brd4 bromodomain 1, measured by FRET (HTRF)
- Design: made in house; host or cells: E. coli BL21(DE3)
- TEST CONTEXT: 2 h at room temperature

[
  {
    "ENTRY SMILES": "COc1ncc(F)cc1-c1cc(-c2c(C)noc2C)cc2[nH]c(C)nc12",
    "RESULT": "300 to 3000 nM"
  },
  {
    "ENTRY SMILES": "Cc1noc(C)c1-c1cc(-c2c(C)noc2C)c2c(c1)ncn2C",
    "RESULT": "≤ 300 nM"
  }
]

Moving on to the next compound.
Reported IC50 of Cc1noc(C)c1-c1cc(-c2cccnc2C(F)(F)F)c2[nH]ncc2c1 : 300 to 3000 nM
